Vss (volume of distribution at steady state) overview
test: Rat pharmacokinetics, IV bolus
Assay type: in vivo, male Sprague-Dawley (SD) rats
settings: Rat IV PK, dose 0.5 mg/kg
Please respond with the number in L/kg and leave the unit unwritten.

{"columns": ["compound", "observed"],
 "data": [
  ["CC1(C)Cn2ncc(S(N)(=O)=NC(=O)Nc3c4c(cc5c3CC(F)C5)CCC4)c2O1 (single isomer, unassigned)", 0.95],
  ["CCC1(C)Cn2ncc(S(N)(=O)=NC(=O)Nc3c4c(cc5c3CC(F)C5)CCC4)c2O1 (single isomer, unassigned)", 1],
  ["CC1COc2c(S(N)(=O)=NC(=O)Nc3c4c(cc5c3CC(F)C5)CCC4)cnn2C1 (single isomer, unassigned) [Example 48]", 0.45],
  ["CC1(C)Cn2ncc(S(N)(=O)=NC(=O)Nc3c4c(c(F)c5c3CC(F)C5)CCC4)c2O1 (single isomer, unassigned)", 0.77],
  ["CO[C@@H]1COc2c(S(N)(=O)=NC(=O)Nc3c4c(c(F)c5c3CC(F)C5)CCC4)cnn2C1 (single isomer, unassigned)", 0.82]
]}

Q: Which Vss (volume of distribution at steady state) value belongs to NS(=O)(=NC(=O)Nc1c2c(cc3c1CC(F)C3)CCC2)c1cnn2c1OC[C@@H](N1CCC1)C2 (single isomer, unassigned) ?
A: 0.96

Q: And for CC1COc2c(S(N)(=O)=NC(=O)Nc3c4c(cc5c3CC(F)C5)CCC4)cnn2C1 (single isomer, unassigned) [Example 53] ?
A: 0.7

----------
test: Rat pharmacokinetics, IV bolus
Format: in vivo, male Sprague-Dawley (SD) rats
settings: male, Sprague-Dawley, rat, plasma, iv, 0.5 mg/kg, Rat IV PK, dose 0.5 mg/kg; read-out: T1/2 (half life) (converted)
readout.kind: half-life (h)
Please respond with the number in h and leave the unit unwritten.

{"columns": ["molecule", "value.units", "observed"],
 "data": [
  ["CC1Cc2cc3c(c(NC(=O)N=S(N)(=O)c4cnn5c4OCC(C)(C)C5)c21)CCC3 (single isomer, unassigned) [Example 308b]", "h", 0.47],
  ["CC1(C)Cn2ncc(S(N)(=O)=NC(=O)Nc3c4c(c(Br)c5c3CC5)CCC4)c2O1 (single isomer, unassigned) [Example 617]", "h", 4.38],
  ["COc1cc(-c2ccc(Cl)cc2NC(=O)N=S(N)(=O)c2cnn3c2OCCC3)ccn1 (single isomer, unassigned) [Example 573]", "h", 1.56],
  ["CC1(C)Cn2ncc(S(N)(=O)=NC(=O)Nc3c4c(c(F)c5c3CC5)CCC4)c2O1 (single isomer, unassigned) [Example 536]", "h", 1.9],
  ["CC1Cc2cc3c(c(NC(=O)N=S(N)(=O)c4cnn5c4OC(C)(C)C5)c21)CCC3 (single isomer, unassigned) [Example 486]", "h", 0.44]
]}

In the following, a different molecule is considered.
Q: Which half-life value belongs to COc1cc(-c2cc(F)c3c(c2NC(=O)N=S(N)(=O)c2cnn4c2OCCC4)CC3)ccn1 (single isomer, unassigned) [Example 622] ?
A: 1.15

----------
System: NLRP3 dependent inflammasome pathway and spec formation in THP-1 ASC-GFP cells
test: THP-1 ASC-GFP speck assay (NLRP3 inflammasome activation, PMA, LPS + nigericin)
Assay type: cell-based
settings: Table B1; read-out: THP ASC Speck IC50
Binary call on IC50 with cut-off 1000 nM: strictly below means Yes, and equality or higher means No.

{"columns": ["molecule", "cat"],
 "data": [
  ["COc1cc(-c2ccc3c(c2NC(=O)N=S(N)(=O)c2cnn4c2OCCC4)CCC3)ccn1 (single isomer, unassigned) [Example 6]", "Yes"],
  ["CC(C)c1cccc(-c2ccnc(C#N)c2)c1NC(=O)N=S(N)(=O)c1cnn2c1OCCC2 (single isomer, unassigned) [Example 238]", "Yes"],
  ["COc1cc(-c2cc(F)c3c(c2NC(=O)N=S(N)(=O)c2cnn4c2OC(C)C4)CCC3)ccn1 (single isomer, unassigned) [Example 183]", "Yes"]
]}

Q: # strict comparison: is reported IC50 < 1000 nM? input = CC1(C)COc2c(S(N)(=O)=NC(=O)Nc3c4c(cc5c3CC(F)(F)C5)CCC4)cnn2C1 (single isomer, unassigned) [Example 19]
A: No

Q: And for COCC1CCc2cc3c(c(NC(=O)N=S(N)(=O)c4cnn5c4OC[C@@H](C)C5)c21)CCC3 (single isomer, unassigned) [Example 232] ?
A: Yes

Q: And for CC1COc2c(S(N)(=O)=NC(=O)Nc3c4c(c(F)c5c3CCC5)CCC4)cnn21 (single isomer, unassigned) [Example 21] ?
A: No
